test system: SN12C renal; assay: NCI-60 one-dose screen, 48 h (100 = growth as untreated, 0 = no growth, -100 = all killed); details: 10 µM
About 83,000 compounds went through this panel and 20% of them were active in at least one assay; those are over-represented in the sample as a whole.
experimental-endpoint: growth (%)
Numbers only, in %.

Example results:
[[record]]
molecule = "CC(=O)OC1C=CC(OC(C)=O)O1 (stereo unspecified)"
unit_text = "%"
numeric_result = 89.8

[[record]]
molecule = "Cc1ccc(C(=O)C2C(=O)C3CCC2C3)cc1 (stereo unspecified)"
unit_text = "%"
numeric_result = 97.3

[[record]]
molecule = "Nc1c(Br)cc(Br)c2c1[nH]c(=O)c1ccccc12"
unit_text = "%"
numeric_result = 80.1


Batch lookup, growth per entry.
1. COc1ccc(-c2nn(-c3cccc(Cl)c3)cc2-c2c(C#N)c(N)n(N)c(=O)c2C#N)cc1
2. Clc1ccc(Cc2ccncc2)cc1
3. CNS(=O)(=O)Oc1ccc(-c2sc3cc(OS(=O)(=O)NC)ccc3c2C(=O)c2ccc(OCCN3CCCCC3)cc2)cc1

Result block:
1: 68.9; 2: 95.4; 3: 79.5

###

Test system: SK-MEL-5 melanoma
Assay: NCI-60 one-dose screen, 48 h (100 = growth as untreated, 0 = no growth, -100 = all killed)
Conditions: 10 µM
Protocol: Growth inhibition of the SK-MEL-5 human tumor cell line is measured as a screen for anti-cancer activity. Cells are grown in 96 well plates and exposed to the test compound for 48 hours. Compounds are tested at a single concentration, which is 10^-5 M for most compounds. The reported endpoint is percent growth (GI% or GIPRCNT), where numbers from 0 - 100% represent growth inhibition, and numbers from -100% - 0 represent cell death. For example, a value of 40 represents 60% growth inhibition. […]
Compounds without any hit were thinned out: in the full panel of roughly 83,000, 20% have a hit.
Assign class by growth: not lower than 90% means Yes; lower than 90% means No.

Look over these answered cases.
[[record]]
compound = "CNS(=O)(=O)Oc1ccc(-c2sc3cc(OS(=O)(=O)NC)ccc3c2C(=O)c2ccc(OCCN3CCCCC3)cc2)cc1"
assigned_category = "No"

[[record]]
compound = "Cn1c2ccccc2c2c3[nH][nH]c(=O)c3c3c4ccccc4[nH]c3c21"
assigned_category = "No"

[[record]]
compound = "O=C(N/N=C/c1c(Cl)cccc1Cl)c1ccccc1Nc1cccc(C(F)(F)F)c1"
assigned_category = "No"

[[record]]
compound = "Nc1ncc(-c2cnn(C3CCNCC3)c2)cc1-c1nc2ccccc2o1"
assigned_category = "No"

[[record]]
compound = "O=C(CNc1nnc(-c2cccnc2SCc2ccccc2)s1)Nc1nc(Cl)cc(Cl)n1"
assigned_category = "Yes"

[[record]]
compound = "CC(C)C[C@H](NC(=O)Cn1cccc(CNC(=O)c2ccccc2)c1=O)B(O)O"
assigned_category = "No"


Query block: Can `Cc1ccc(-n2nnnc2N)c(C)c1` be said to have growth at or above 90%?
Result block: Yes

Query block: Answer whether growth of COc1cc(C2CC(c3ccccc3)=NN2C(C)=O)cc(OC)c1OC (stereo not drawn) is greater than or equal to 90%.
Result block: No

Query block: Would you say `COc1cc(-c2csc(NC(=O)Nc3cc(C(F)(F)F)cc(C(F)(F)F)c3)n2)cc(OC)c1OC` shows growth at minimum 90%?
Result block: No

Query block: State whether the measured growth reaches 90%, counting equality as reaching it, for `CS(=O)(=O)c1nccc(-c2c(-c3cccc(O)c3)nc3sccn23)n1`
Result block: No

Query block: Confirm if growth reported for the compound `CCOC(=O)c1cc(C(=O)c2cc(OC)cc(OC)c2)n2nc(C)ccc12` is 90% or above.
Result block: No

Query block: Determine whether this compound has growth no lower than 90%: CN(C)CCC1(c2ccccc2)CCN(C)C1=O (stereo not drawn)
Result block: Yes
